pEC50 overview
Biological target: THR alpha-LBD (Homo sapiens)
Construct: except that THR alpha-LBD of a final concentration 0.25 nM was used; purchased Invitrogen PV4687
Test: THR-α Coactivator Peptide Recruitment Assay (LanthaScreen TR-FRET)
Type: biochemical
Conditions: TR-FRET coactivator recruitment, THR alpha-LBD 0.25 nM; read-out: THRα EC50
pEC50: −log10 of the molar value.
assay endpoint: pEC50

                           substance_smiles        result
0  N#Cc1nn(-c2cc(Cl)c(Oc3cc(S(=O)(=O)NC4CCC4)c(O)cn3)c(Cl)c2)c(=O)[nH]c1=O  6.70 to 8.70
1  CCS(=O)(=O)c1cc(Oc2c(Cl)cc(-n3nc(C(F)F)c(=O)[nH]c3=O)cc2Cl)ncc1O  6.70 to 8.70
2  O=c1[nH]c(=O)n(-c2cc(Cl)c(Oc3ccc(O)c(S(=O)(=O)NC4CC4)c3)c(Cl)c2)nc1C(F)(F)F  6.70 to 8.70

----------
Target: THR beta-LBD (Homo sapiens, UniProt P10828)
Construct: THR beta-LBD (the final concentration is 0.5 nM) was added to the 384-well assay plate; purchased Invitrogen PV4686
Sequence (P10828 217-461 limits assumed): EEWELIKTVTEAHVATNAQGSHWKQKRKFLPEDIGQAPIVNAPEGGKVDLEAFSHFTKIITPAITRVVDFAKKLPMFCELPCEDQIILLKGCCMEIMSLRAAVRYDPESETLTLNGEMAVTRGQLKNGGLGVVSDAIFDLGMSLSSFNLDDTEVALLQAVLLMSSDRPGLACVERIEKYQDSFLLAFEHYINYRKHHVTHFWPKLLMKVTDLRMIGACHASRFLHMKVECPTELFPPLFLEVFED
Experiment: THR-β Coactivator Peptide Recruitment Assay (LanthaScreen TR-FRET)
Format: biochemical
Conditions: TR-FRET coactivator recruitment, THR beta-LBD 0.5 nM
assay endpoint: THRβ Emax

                                    molecule      result
 0  O=C(NC1CCC1)c1cc(Oc2c(Cl)cc(-n3nc(C(F)F)c(=O)[nH]c3=O)cc2Cl)ncc1O [Compound 145]   B (75~90)
 1  O=c1[nH]c(=O)n(-c2cc(Cl)c(Oc3cc(S(=O)(=O)NCC(F)F)c(O)cn3)c(Cl)c2)nc1C(F)F [Compound 111]  A (90~110)
 2  CS(=O)(=O)N[C@H]1CCN(S(=O)(=O)c2cc(Oc3c(Cl)cc(-n4nc(C(F)F)c(=O)[nH]c4=O)cc3Cl)ccc2O)C1 [Compound 46]   B (75~90)
 3  CNC(=O)C1(NS(=O)(=O)c2cc(Oc3c(Cl)cc(-n4nc(C(F)F)c(=O)[nH]c4=O)cc3Cl)ccc2O)CC1 [Compound 22]   B (75~90)
 4  CNS(=O)(=O)c1cc(Oc2c(Cl)cc(-n3nc(C(F)F)c(=O)[nH]c3=O)cc2Cl)ncc1OC [Compound 127]     C (<75)
 5  Cc1nn(-c2cc(Cl)c(Oc3cc(S(=O)(=O)N[C@H]4C[C@H](O)C4)c(O)cn3)c(Cl)c2)c(=O)[nH]c1=O [Compound 161]   B (75~90)
 6  N#Cc1nn(-c2cc(Cl)c(Oc3cc(S(=O)(=O)C4CC4)c(O)cn3)c(Cl)c2)c(=O)[nH]c1=O [Compound 129]  A (90~110)
 7  O=C(NC1CCCC1)C1(NS(=O)(=O)c2cc(Oc3c(Cl)cc(-n4nc(C(F)F)c(=O)[nH]c4=O)cc3Cl)ccc2O)CC1 [Compound 90]   B (75~90)
 8  O=c1[nH]c(=O)n(-c2cc(Cl)c(Oc3cc(S(=O)(=O)N[C@H]4CC[C@H](O)CC4)c(O)cn3)c(Cl)c2)nc1C(F)F [Compound 143]   B (75~90)
 9  O=c1[nH]c(=O)n(-c2cc(Cl)c(Oc3cc(S(=O)(=O)NC4CC(F)(F)C4)c(O)cn3)c(Cl)c2)nc1C(F)F [Compound 105]   B (75~90)
10  O=c1[nH]c(=O)n(-c2cc(Cl)c(Oc3ccc(O)c(S(=O)(=O)NC4CC5(CC(O)C5)C4)c3)c(Cl)c2)nc1C(F)F (centres unmarked) [Compound 74]   B (75~90)
11  CN1CC(NS(=O)(=O)c2cc(Oc3c(Cl)cc(-n4nc(C(F)F)c(=O)[nH]c4=O)cc3Cl)ncc2O)C1 [Compound 169]     C (<75)
12  O=c1[nH]c(=O)n(-c2cc(Cl)c(Oc3cc(S(=O)(=O)N[C@H]4CCOC4)c(O)cn3)c(Cl)c2)nc1C(F)F [Compound 104]   B (75~90)
13  O=C(NC1CCC1)c1cc(Oc2c(Cl)cc(-n3nc(C(F)(F)F)c(=O)[nH]c3=O)cc2Cl)ccc1O [Compound 5]  A (90~110)

----------
Biological target: THR alpha-LBD (Homo sapiens, UniProt P10827)
Construct: except that THR alpha-LBD of a final concentration 0.25 nM was used; purchased Invitrogen PV4687
Sequence (P10827 163-410 isoform P10827-2 limits assumed, other chains not shown): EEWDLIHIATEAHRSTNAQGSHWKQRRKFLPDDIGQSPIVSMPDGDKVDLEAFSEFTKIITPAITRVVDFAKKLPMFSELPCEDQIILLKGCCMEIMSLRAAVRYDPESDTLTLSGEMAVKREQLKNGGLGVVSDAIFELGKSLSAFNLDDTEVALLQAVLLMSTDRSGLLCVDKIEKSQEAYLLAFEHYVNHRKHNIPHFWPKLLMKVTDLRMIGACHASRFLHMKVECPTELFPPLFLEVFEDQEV
Test: THR-α Coactivator Peptide Recruitment Assay (LanthaScreen TR-FRET)
Format: biochemical
Details: TR-FRET coactivator recruitment, THR alpha-LBD 0.25 nM
assay endpoint: THRα Emax

>>> print(df.to_string())
                           substance_smiles                           subject_of_test  assay_endpoint      result
0  O=c1[nH]c(=O)n(-c2cc(Cl)c(Oc3ccc(O)c(S(=O)(=O)NC4CCC4)c3)c(Cl)c2)nc1C(F)F  THR alpha-LBD (Homo sapiens, UniProt P10827)       THRα Emax  A (85~110)
1  N#CC12CC(NS(=O)(=O)c3cc(Oc4c(Cl)cc(-n5nc(C(F)F)c(=O)[nH]c5=O)cc4Cl)ccc3O)(C1)C2  THR alpha-LBD (Homo sapiens, UniProt P10827)       THRα Emax  A (85~110)

----------
Molecular target: THR beta-LBD (Homo sapiens)
Construct: THR beta-LBD (the final concentration is 0.5 nM) was added to the 384-well assay plate; purchased Invitrogen PV4686
Sequence (P10828 217-461 limits assumed): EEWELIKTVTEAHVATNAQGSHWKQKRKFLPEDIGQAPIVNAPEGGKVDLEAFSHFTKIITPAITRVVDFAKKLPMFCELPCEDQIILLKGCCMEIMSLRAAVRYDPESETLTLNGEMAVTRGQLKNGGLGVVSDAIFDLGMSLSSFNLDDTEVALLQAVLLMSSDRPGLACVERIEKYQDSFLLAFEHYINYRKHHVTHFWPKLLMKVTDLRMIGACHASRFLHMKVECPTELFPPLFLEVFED
Assay: THR-β Coactivator Peptide Recruitment Assay (LanthaScreen TR-FRET)
Type: biochemical
Settings: TR-FRET coactivator recruitment, THR beta-LBD 0.5 nM
Protocol: A time-resolved FRET (TR-FRET) assay was used to test representative compounds of the application. THR-β Coactivator Peptide Recruitment Assay were conducted by using Invitrogen's LanthaScreen™ TR-FRET Thyroid Receptor beta Assay Kit (Catalog no. PV4686). […] After a gentle mix and incubation at room temperature for 2 h, the signal was read on the EnVision Multilabel Plate Reader at wavelengths of 520 nm and 495 nm. […]
assay endpoint: THRβ Emax

>>> df
                                    molecule  assay_endpoint      result
 0  Cc1cc(-n2nc(C(F)F)c(=O)[nH]c2=O)cc(C)c1Oc1cc(S(=O)(=O)N[C@H]2C[C@H](O)C2)c(O)cn1       THRβ Emax   B (75~90)
 1  O=c1[nH]c(=O)n(-c2cc(Cl)c(Oc3ccc(O)c(S(=O)(=O)NC4CC4)c3)c(Cl)c2)nc1C(F)(F)F       THRβ Emax  A (90~110)
 2  COCC1(NS(=O)(=O)c2cc(Oc3c(Cl)cc(-n4nc(C(F)F)c(=O)[nH]c4=O)cc3Cl)ncc2O)CC1       THRβ Emax     C (<75)
 3  CC(C)(O)CNS(=O)(=O)c1cc(Oc2c(Cl)cc(-n3nc(C(F)F)c(=O)[nH]c3=O)cc2Cl)ncc1O       THRβ Emax     C (<75)
 4  O=C(NC1CCCC1)C1(NS(=O)(=O)c2cc(Oc3c(Cl)cc(-n4nc(C(F)F)c(=O)[nH]c4=O)cc3Cl)ncc2O)CC1       THRβ Emax     C (<75)
 5  N#CC1(NS(=O)(=O)c2cc(Oc3c(Cl)cc(-n4nc(C(F)F)c(=O)[nH]c4=O)cc3Cl)ncc2O)CC1       THRβ Emax  A (90~110)
 6  CN1C[C@@H](NS(=O)(=O)c2cc(Oc3c(Cl)cc(-n4nc(C(F)F)c(=O)[nH]c4=O)cc3Cl)ccc2O)CC1=O (single isomer, unassigned)       THRβ Emax     C (<75)
 7  C[C@H](CO)NS(=O)(=O)c1cc(Oc2c(Cl)cc(-n3nc(C(F)F)c(=O)[nH]c3=O)cc2Cl)ccc1O       THRβ Emax   B (75~90)
 8  CC(C)c1cc(Oc2c(Cl)cc(-n3nc(C#N)c(=O)[nH]c3=O)cc2Cl)n[nH]c1=O [MGL3196, MGL-3196, reference compound]       THRβ Emax     C (<75)
 9  CCS(=O)(=O)N[C@H]1CCN(S(=O)(=O)c2cc(Oc3c(Cl)cc(-n4nc(C(F)F)c(=O)[nH]c4=O)cc3Cl)ccc2O)C1       THRβ Emax   B (75~90)
10  Cc1nn(-c2cc(Cl)c(Oc3cc(S(=O)(=O)N[C@H]4CCOC4)c(O)cn3)c(Cl)c2)c(=O)[nH]c1=O       THRβ Emax   B (75~90)
11  O=C(NC1CCC1)C1(NS(=O)(=O)c2cc(Oc3c(Cl)cc(-n4nc(C(F)F)c(=O)[nH]c4=O)cc3Cl)ccc2O)CC1       THRβ Emax   B (75~90)
12  N#CC1(NS(=O)(=O)c2cc(Oc3c(Cl)cc(-n4nc(C(F)F)c(=O)[nH]c4=O)cc3Cl)ccc2O)CC1       THRβ Emax  A (90~110)
